System: MS2 coat protein
Experiment: apparent KD of MS2 coat protein; designed switch direction (-1 OFF switch, 1 ON switch): -1; higher = weaker reporter binding
Conditions: input ligand: none
result.type: apparent KD of MS2 coat protein

Give apparent KD of MS2 coat protein for all sequences that follow.
1. UCACGGGACUGAGGAUAUACAUCAACAAUGGUUGUAGAAGGCAGAAGGUUGAAUCAUAUACAAAACAUGAGGAUCACCCAUGUA [JR_ExcNG1_Sub032] (Eterna round: R96, puzzle: Exclusion NG 1)
2. GGGCCCGGAGGAUAUACAAUUCUGGGCUGAAAGGCUCGGGUACAUGAGGAUCACCCAUGUAGAAGGCCGGGCCC [-37.6, -34.7 kcal A 24%, 7bis-0] (Eterna round: R97, puzzle: Exclusion 2)

["26.2 nM", "14.9 nM"]

Give apparent KD of MS2 coat protein for all sequences that follow.
1. GAUACACAUGAGGAUCACCCAUGUGAGGAUAUGGAGGAGUUGCGAGUAAGCGAUGGAUCCAGAAGGCGCGUGAG [JR_Ex1_Sub082] (Eterna round: R97, puzzle: Exclusion 1)
2. ACAUGAGGAUCACCCAUGUACACGUAAUGGCUCAUGUAGAGUGAGGAUAUGUGUGACGAACGAGCACAGAAGGCACAAGACUGG [Deportation 12 - Jieux - Exclusion NG 3] (Eterna round: R96, puzzle: Exclusion NG 3)
3. ACCAUGUUAGGAUAUGCGUGGCAUAGACCGGUCUAUCCGCGGUAGAAGGGACAUGAGGAUCACCCAUGUGCGAG [Eternabot (L2) Solution 85] (Eterna round: R97, puzzle: Exclusion 4)
4. CCCACCUCAUGAACAACAUGAGGAUCACCCAUGUUGAAGACUAAGGAUAUCGUACUCGAUGAAUGCGAGAAGGUGGCACUUCGA [Eternabot solution 36] (Eterna round: R96, puzzle: Exclusion NG 3)

["64.2 nM", "40.2 nM", "32.3 nM", "28.7 nM"]
